binders and their reported koff
- test_target: T1, hIL2-DM-his (human, UniProt P60568 21-153)
- T1 construct: expressed in ExpiCHO-S cells, nickel-column purified; also called hIL-2 mutein containing two point mutations K64G and N90R (with a his-tag); not shown: his-tag
- T1 sequence (P60568 21-153 K84G/N110R): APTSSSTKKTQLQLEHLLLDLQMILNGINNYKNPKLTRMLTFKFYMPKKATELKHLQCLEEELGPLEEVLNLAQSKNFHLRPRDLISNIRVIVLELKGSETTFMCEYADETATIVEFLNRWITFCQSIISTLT
- test: BLI ForteBio, Ab on Protein A sensor
Numeric answer only, unit s⁻¹ assumed.

Worked examples, 2 binders total:
>  <binder>
K2G10 (antibody, V domains shown) VH: QVQLVQSGAEVKKPGATVKISCKVSGDTITAYYMHWVRQAPGQGLEWIGRIDPDDDSTKYAENFKGRVTITADTSTDTAYMELSSLRSEDTAVYYCTTITFYYTRELRWFAYWGQGTLVTVSS VL: DIVLTQSPATLSLSPGERATLSCQASQYISNYLSWYQQKPGQAPRLLIYSATSLASGIPARFSGSRSGTDFTLTISSLEPEDFAVYYCLQHYSTPYTFGQGTKLEIK

>  <unit_of_measurement>
s⁻¹

>  <measured_result>
0.000418

$$$$
>  <binder>
K4G10 (antibody, V domains shown) VH: QVQLVQSGAEVKKPGATVKISCKVSGDTITAYYMHWVRQAPGQGLEWIGRIDPDDDSTKYAENFKGRVTITADTSTDTAYMELSSLRSEDTAVYYCTTITFYYTRELRWFAYWGQGTLVTVSS VL: DIVLTQSPATLSLSPGERATLSCQASQYIGNYLSWYQQKPGQAPRLLIYSATSLASGIPARFSGSRSGTDFTLTISSLEPEDFAVYYCLQHYSTPYTFGQGTKLEIK

>  <unit_of_measurement>
s⁻¹

>  <measured_result>
0.000907

$$$$

Shift focus to the following entry.
QUERY: Would you mind telling me what koff value was observed for K2G6 (antibody, V domains shown) VH: QVQLVQSGAEVKKPGATVKISCKVSGDTITAYYMHWVRQAPGQGLEWIGRIDPDDDSTKYAENFKGRVTITADTSTDTAYMELSSLRSEDTAVYYCTTITFYYSRELRWFAYWGQGTLVTVSS VL: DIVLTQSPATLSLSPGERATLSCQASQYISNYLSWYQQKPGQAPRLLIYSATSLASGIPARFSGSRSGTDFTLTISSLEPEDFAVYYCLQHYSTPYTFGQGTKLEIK ?
RESULT: 0.000593
